Target: Tyrosinase (Agaricus bisporus) (UniProt O42713)
Sequence (whole entry): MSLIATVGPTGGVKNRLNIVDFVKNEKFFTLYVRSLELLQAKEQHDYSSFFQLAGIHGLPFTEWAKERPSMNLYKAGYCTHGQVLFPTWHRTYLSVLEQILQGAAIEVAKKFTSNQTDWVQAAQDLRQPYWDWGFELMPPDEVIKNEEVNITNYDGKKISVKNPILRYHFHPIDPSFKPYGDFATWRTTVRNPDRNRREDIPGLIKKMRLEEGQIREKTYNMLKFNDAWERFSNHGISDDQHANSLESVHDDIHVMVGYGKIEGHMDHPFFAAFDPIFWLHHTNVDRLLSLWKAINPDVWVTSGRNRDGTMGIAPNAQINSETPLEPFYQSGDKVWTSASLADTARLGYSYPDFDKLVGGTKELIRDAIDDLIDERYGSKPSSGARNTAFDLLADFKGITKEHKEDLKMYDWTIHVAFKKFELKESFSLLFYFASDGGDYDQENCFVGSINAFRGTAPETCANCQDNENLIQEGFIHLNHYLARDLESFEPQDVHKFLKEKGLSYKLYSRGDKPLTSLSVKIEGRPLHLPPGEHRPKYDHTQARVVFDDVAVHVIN
What Kis was measured for each of the following?
Output spec: scalar in µM, unitless text.

The reported Tyrosinase (Agaricus bisporus) (UniProt O42713) Kis of COc1cc([C@@H]2Oc3c(O)cc(-c4oc5cc(O)cc(O)c5c(=O)c4O)cc3[C@H]2CO)ccc1O is 6.4

The reported Tyrosinase (Agaricus bisporus) (UniProt O42713) Kis of COc1cc([C@@H]2Oc3c(O)cc([C@H]4Oc5cc(O)cc(O)c5C(=O)[C@@H]4O)cc3[C@H]2CO)ccc1O is 2.9

The reported Tyrosinase (Agaricus bisporus) (UniProt O42713) Kis of COc1cc([C@H]2Oc3ccc([C@H]4Oc5cc(O)cc(O)c5C(=O)[C@@H]4O)cc3O[C@@H]2CO)ccc1O is 3.2

The reported Tyrosinase (Agaricus bisporus) (UniProt O42713) Kis of COc1cc([C@@H]2[C@H]3CO[C@@]4(O)C(=O)[C@@H]2C=C([C@H]2Oc5cc(O)cc(O)c5C(=O)[C@@H]2O)[C@@H]34)ccc1O is 2.3

The reported Tyrosinase (Agaricus bisporus) (UniProt O42713) Kis of COc1cc([C@@H]2Oc3ccc([C@H]4Oc5cc(O)cc(O)c5C(=O)[C@@H]4O)cc3O[C@H]2CO)ccc1O is 8

The reported Tyrosinase (Agaricus bisporus) (UniProt O42713) Kis of COc1cc([C@H]2Oc3c(O)cc([C@H]4Oc5cc(O)cc(O)c5C(=O)[C@@H]4O)cc3[C@@H]2CO)ccc1O is 14

The reported Tyrosinase (Agaricus bisporus) (UniProt O42713) Kis of COc1cc(C2Oc3cc([C@H]4Oc5cc(O)cc(O)c5C(=O)[C@@H]4O)ccc3OC2CO)ccc1O (mixture of isomers) is 3.7

----------
Biological target: Tyrosinase (Agaricus bisporus)
Sequence (whole entry): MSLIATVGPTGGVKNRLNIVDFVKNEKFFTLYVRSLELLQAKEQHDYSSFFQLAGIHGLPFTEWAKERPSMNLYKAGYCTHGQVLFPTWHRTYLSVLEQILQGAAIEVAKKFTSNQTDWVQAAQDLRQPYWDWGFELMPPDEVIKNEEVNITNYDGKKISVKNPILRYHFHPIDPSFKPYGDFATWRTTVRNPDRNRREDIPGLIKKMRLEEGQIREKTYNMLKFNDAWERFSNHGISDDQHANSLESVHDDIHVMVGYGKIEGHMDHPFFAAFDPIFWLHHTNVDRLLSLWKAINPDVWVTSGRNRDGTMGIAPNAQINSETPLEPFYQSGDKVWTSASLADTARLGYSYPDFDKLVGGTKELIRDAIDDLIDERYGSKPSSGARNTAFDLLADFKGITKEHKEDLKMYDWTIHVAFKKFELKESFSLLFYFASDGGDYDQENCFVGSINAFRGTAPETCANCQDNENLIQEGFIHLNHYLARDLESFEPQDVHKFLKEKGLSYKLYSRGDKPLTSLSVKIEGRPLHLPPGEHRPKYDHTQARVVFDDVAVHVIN
What Kis was measured for each of the following?
Output spec: scalar in µM, unitless text.

Form field Kis, entry COc1cc([C@@H]2Oc3ccc([C@H]4Oc5cc(O)cc(O)c5C(=O)[C@@H]4O)cc3O[C@H]2CO)ccc1O [ISOSILYBIN B] : 25.2

Form field Kis, entry COc1cc([C@@H]2Oc3c(O)cc(-c4oc5cc(O)cc(O)c5c(=O)c4O)cc3[C@H]2CO)ccc1O : 146

Form field Kis, entry COc1cc([C@@H]2[C@H]3CO[C@@]4(O)C(=O)[C@@H]2C=C([C@H]2Oc5cc(O)cc(O)c5C(=O)[C@@H]2O)[C@@H]34)ccc1O [SILIDIANIN] : 90.8

Form field Kis, entry COc1cc([C@H]2Oc3ccc([C@H]4Oc5cc(O)cc(O)c5C(=O)[C@@H]4O)cc3O[C@@H]2CO)ccc1O [ISOSILYBIN A] : 29.5

----------
Target chain: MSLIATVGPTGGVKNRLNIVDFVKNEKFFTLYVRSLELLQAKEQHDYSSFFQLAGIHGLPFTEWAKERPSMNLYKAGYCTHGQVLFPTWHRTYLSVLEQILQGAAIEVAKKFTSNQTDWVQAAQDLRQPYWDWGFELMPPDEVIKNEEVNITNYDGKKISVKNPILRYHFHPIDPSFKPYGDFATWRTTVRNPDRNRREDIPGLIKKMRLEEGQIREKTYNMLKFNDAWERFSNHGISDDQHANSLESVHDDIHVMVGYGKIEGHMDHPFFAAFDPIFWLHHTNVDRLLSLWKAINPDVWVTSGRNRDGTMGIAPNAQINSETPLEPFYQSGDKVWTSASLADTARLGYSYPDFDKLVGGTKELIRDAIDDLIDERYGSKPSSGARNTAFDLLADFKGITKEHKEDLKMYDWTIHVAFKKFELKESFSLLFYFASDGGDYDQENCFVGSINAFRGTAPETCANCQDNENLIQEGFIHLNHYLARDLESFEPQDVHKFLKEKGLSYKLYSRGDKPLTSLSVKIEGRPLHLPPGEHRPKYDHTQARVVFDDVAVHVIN
What Kis was measured for each of the following?
Output spec: scalar in µM, unitless text.

Form field Kis, entry COc1cc([C@H]2Oc3c(O)cc([C@H]4Oc5cc(O)cc(O)c5C(=O)[C@@H]4O)cc3[C@@H]2CO)ccc1O [SILICRISTIN B] : 91.3

Form field Kis, entry COc1cc([C@@H]2Oc3c(O)cc([C@H]4Oc5cc(O)cc(O)c5C(=O)[C@@H]4O)cc3[C@H]2CO)ccc1O [SILICRISTIN A] : 37.3

Form field Kis, entry COc1cc(C2Oc3cc([C@H]4Oc5cc(O)cc(O)c5C(=O)[C@@H]4O)ccc3OC2CO)ccc1O (mixture of isomers) [SILIBININ] : 27.6

----------
Target: Tyrosinase (Agaricus bisporus)
Assay: Inhibition of monophenolase activity of mushroom tyrosinase assessed as increase in lag period of monophenolase for oxidation of L-tyrosine substrate at 0.5 to 16 uM by UV-Vis spectrophotometry
PARAMETER MEASURED: inhibition

COc1cc(C2Oc3cc([C@H]4Oc5cc(O)cc(O)c5C(=O)[C@@H]4O)ccc3OC2CO)ccc1O (mixture of isomers)    Dose-dependent effect
COc1cc([C@@H]2[C@H]3CO[C@@]4(O)C(=O)[C@@H]2C=C([C@H]2Oc5cc(O)cc(O)c5C(=O)[C@@H]2O)[C@@H]34)ccc1O    Dose-dependent effect
COc1cc([C@H]2Oc3c(O)cc([C@H]4Oc5cc(O)cc(O)c5C(=O)[C@@H]4O)cc3[C@@H]2CO)ccc1O    Dose-dependent effect

----------
Test system Tyrosinase (Agaricus bisporus), Ki listed for each of the compounds.
Output spec: scalar in µM, unitless text.

Form field Ki, entry COc1cc([C@@H]2Oc3c(O)cc([C@H]4Oc5cc(O)cc(O)c5C(=O)[C@@H]4O)cc3[C@H]2CO)ccc1O : 15.2

Form field Ki, entry COc1cc([C@@H]2[C@H]3CO[C@@]4(O)C(=O)[C@@H]2C=C([C@H]2Oc5cc(O)cc(O)c5C(=O)[C@@H]2O)[C@@H]34)ccc1O : 15

Form field Ki, entry COc1cc([C@H]2Oc3c(O)cc([C@H]4Oc5cc(O)cc(O)c5C(=O)[C@@H]4O)cc3[C@@H]2CO)ccc1O : 34.7

Form field Ki, entry COc1cc([C@@H]2Oc3ccc([C@H]4Oc5cc(O)cc(O)c5C(=O)[C@@H]4O)cc3O[C@H]2CO)ccc1O : 12.7

Form field Ki, entry COc1cc(C2Oc3cc([C@H]4Oc5cc(O)cc(O)c5C(=O)[C@@H]4O)ccc3OC2CO)ccc1O (mixture of isomers) : 8.4

Form field Ki, entry COc1cc([C@@H]2Oc3c(O)cc(-c4oc5cc(O)cc(O)c5c(=O)c4O)cc3[C@H]2CO)ccc1O : 38.3

Form field Ki, entry COc1cc([C@H]2Oc3ccc([C@H]4Oc5cc(O)cc(O)c5C(=O)[C@@H]4O)cc3O[C@@H]2CO)ccc1O : 12.3

Source listed as ChEMBL document CHEMBL4402507.
